src = patent US20220324969A1

system: CD33 (Sino Biological, Cat #12238-H08H) (UniProt P20138 18-259)
Sequence (P20138 18-259 limits assumed): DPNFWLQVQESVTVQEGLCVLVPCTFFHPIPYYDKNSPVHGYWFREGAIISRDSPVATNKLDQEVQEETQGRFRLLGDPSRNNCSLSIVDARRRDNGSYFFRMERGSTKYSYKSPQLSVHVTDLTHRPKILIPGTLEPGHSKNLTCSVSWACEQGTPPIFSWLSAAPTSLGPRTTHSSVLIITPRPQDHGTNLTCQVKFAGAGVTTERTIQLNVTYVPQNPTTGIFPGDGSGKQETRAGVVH
testDetails: BLI, IgG captured on anti-human Fc sensor, 50 nM CD33, pH 7.4 vs pH 5.4
metricName: binding result

>>> observed("MYT2676 (antibody, V domains shown, IgG; vadastuximab VL variant #24 (F94H)) VH: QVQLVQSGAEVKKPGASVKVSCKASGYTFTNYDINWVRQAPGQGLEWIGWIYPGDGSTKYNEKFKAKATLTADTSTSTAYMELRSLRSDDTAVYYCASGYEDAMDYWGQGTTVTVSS VL: DIQMTQSPSSLSASVGDRVTINCKASQDINSYLSWFQQKPGKAPKTLIYRANRLVDGVPSRFSGSGSGQDYTLTISSLQPEDFATYYCLQYDEHPLTFGGGTKVEIK")
"binds"
>>> observed("MYT1619 (antibody, V domains shown, IgG; gemtuzumab VL variant #30 (W100H)) VH: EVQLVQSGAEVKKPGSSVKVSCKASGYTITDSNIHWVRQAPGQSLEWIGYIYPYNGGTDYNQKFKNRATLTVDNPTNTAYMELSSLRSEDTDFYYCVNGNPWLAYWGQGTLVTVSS VL: DIQLTQSPSTLSASVGDRVTITCRASESLDNYGIRFLTWFQQKPGKAPKLLMYAASNQGSGVPSRFSGSGSGTEFTLTISSLQPDDFATYYCQQTKEVPHSFGQGTKVEVK")
"binds"
>>> observed("MYT1241 (antibody, V domains shown, IgG; IMGN779 VH variant #29 (R98H)) VH: QVQLQQPGAEVVKPGASVKMSCKASGYTFTSYYIHWIKQTPGQGLEWVGVIYPGNDDISYNQKFQGKATLTADKSSTTAYMQLSSLTSEDSAVYYCAHEVRLRYFDVWGQGTTVTVSS VL: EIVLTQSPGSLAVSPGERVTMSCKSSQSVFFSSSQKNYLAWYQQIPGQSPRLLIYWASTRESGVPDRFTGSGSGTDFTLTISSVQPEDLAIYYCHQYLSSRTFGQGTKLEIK")
"binds"
